tested on: Pyricularia oryzae; assay: microbe, parasite or virus in culture; format: cell-based; details: Pyricularia oryzae, 168 h, read-out: Observed efficacy
inhibition of growth at 0.016 ppm values for the compounds below.
reported.endpoint: inhibition of growth at 0.016 ppm

In [3]: df
Out[3]:
                                   compound     subject_of_test  result
0  COc1cc(CCNc2ncnc3c(F)ccc(F)c23)ccc1Oc1cc(C(F)(F)F)ccn1  Pyricularia oryzae     41%
1  Fc1ccc(F)c2c(NCCc3ccc(Oc4cc(C(F)(F)F)ncn4)cc3)ncnc12  Pyricularia oryzae     34%
2  Fc1ccc(F)c2c(NCCc3ccc(Oc4cc(C(F)(F)F)ccn4)cc3)ncnc12  Pyricularia oryzae     36%
3  CON=C(C(=O)OC)c1ccccc1CON=C(C)c1cccc(C(F)(F)F)c1 [II-17, Trifloxystrobin, reference compound]  Pyricularia oryzae     24%
4  COc1cc(CCNc2ncnc3c(F)cc(F)c(F)c23)ccc1Oc1cc(C(F)(F)F)ccn1  Pyricularia oryzae     29%
